# TESTED SYSTEM: T1, Recombinant Human TNF-α/TNFSF1A (human, UniProt P01375 77-233)
# T1 construct: Bought reagent (R&D Systems 210-TA); also called hTNF-α; huTNF-α
# T1 sequence (P01375 77-233 limits assumed): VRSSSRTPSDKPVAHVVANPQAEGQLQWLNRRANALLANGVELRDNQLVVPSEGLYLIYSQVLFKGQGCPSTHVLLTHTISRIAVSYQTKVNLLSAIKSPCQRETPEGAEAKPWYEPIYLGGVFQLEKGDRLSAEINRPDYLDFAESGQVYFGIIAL
# METHOD: SPR (Biacore), antibody captured, TNF-α in solution
Listing of recorded koff by entry.
QUANTITY NAME: koff (s⁻¹)

AB261 (antibody, V domains shown, also called hMAK195VH.2b / hMAK195VL.1a) VH: EVQLVESGGGLVQPGGSLRLSCAASGFTLSDYGVNWVRQAPGKGLEWVSMIWGDGSTDYDSTLKSRFTISKDNSKNTLYLQMNSLRAEDTAVYYCAREWHHGPVAYWGQGTLVTVSS VL: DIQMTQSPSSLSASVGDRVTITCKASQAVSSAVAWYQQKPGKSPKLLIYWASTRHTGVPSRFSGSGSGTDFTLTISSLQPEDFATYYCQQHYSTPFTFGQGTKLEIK = 0.000285
AB263 (antibody, V domains shown, also called hMAK195VH.2b / hMAK195VL.2a) VH: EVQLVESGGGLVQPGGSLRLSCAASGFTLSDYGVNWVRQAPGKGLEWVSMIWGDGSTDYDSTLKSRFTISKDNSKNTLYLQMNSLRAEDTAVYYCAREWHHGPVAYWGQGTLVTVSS VL: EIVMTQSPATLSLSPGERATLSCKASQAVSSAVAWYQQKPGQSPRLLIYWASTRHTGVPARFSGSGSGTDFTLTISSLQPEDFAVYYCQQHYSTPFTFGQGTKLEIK = 0.000273
